- assayProtocol: NCI Yeast Anticancer Drug Screen. Data for the sgs1 mgt1 strain (AID 161);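 further: 0% = growth of cultures given vehicle only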
- assaySetup: S. cerevisiae sgs1 mgt1 strain, at 50.0 µM, hits give high values
This is part of a sample that, as a whole, favours compounds with a hit. Of some 79,000 tested, about 15% had one in any assay.
reportedProperty: growth inhibition (%)
Give the value in % but do not write % after it.

# compound, growth inhibition [%]
records = [
    ("O=C(OCc1ccccc1)/C(c1ccccc1)=[N+]1/C(=S)Nc2ccc([N+](=O)[O-])cc21", 1.6),
    ("OCC1OC(Nc2ccc(F)cc2)C(O)C1O (centres undefined)", -1.3),
    ("Cc1cc2nc3c(N)ccc(N)c3nc2cc1N", -0.65),
]

Report growth inhibition for `CCOC(=O)/C(=C\c1ccccc1)c1nc2ccccc2[nH]1` please.
-15.4

Would you mind telling me what growth inhibition value was observed for CNC(=O)C1CCCN1C(=O)C(Cc1cnc[nH]1)NC(=O)C1CCC(=O)N1 (centres undefined) ?
-11.6

Could you share which growth inhibition value was measured for `Nc1ccc(O)c(N=Nc2ccc(S(N)(=O)=O)cc2)c1` ?
13.6

Data request, read-out growth inhibition, for `O=c1cc(O)cc(CO)o1`
-9.8

Item under review: `COC(=O)CC1=NNC(=O)C1` . Reported growth inhibition?
-14

Can you look up the measured growth inhibition of `O=C(O)/C(=C/C=C/c1ccccc1)c1csc(-c2nc(/C(=C\C=C\c3ccccc3)C(=O)O)cs2)n1` for me?
19.4

Measured values drawn from PubChem BioAssay (NCI) for this set.
